target or system: PAK4 kinase activity in whole cells (TR-293-KDG, modified HEK 293) (Homo sapiens)
Construct: engineered to overexpress both GEF-H1b and the kinase domain (KD) of PAK4
assay protocol: PAK4 cellular assay: sandwich ELISA of PAK4-dependent phosphorylation of GEF-H1b in TR-293-KDG cells
condition details: 3-hour exposure
parameter measured: EC50 (nM)

compound=CN(C)C[C@@H](OC(=O)N1Cc2c(NC(=O)c3ccc(C(F)(F)F)cc3)n[nH]c2C1(C)C)c1ccccn1 parameter_measured=EC50 unit_abbreviation=nM numeric_value=79.9
compound="CN(C)C[C@@H](OC(=O)N1Cc2c(NC(=O)C3CN(C)CCO3)n[nH]c2C1(C)C)c1ccccc1 (some centres unmarked)" parameter_measured=EC50 unit_abbreviation=nM numeric_value=110
compound=CN(C)C[C@@H](OC(=O)N1Cc2c(NC(=O)[C@@H]3CCCO3)n[nH]c2C1(C)C)c1ccccc1 parameter_measured=EC50 unit_abbreviation=nM numeric_value=103
compound=COc1ccc(CC(=O)Nc2n[nH]c3c2CN(C(=O)O[C@H](CN(C)C)c2ccccn2)C3(C)C)cc1 parameter_measured=EC50 unit_abbreviation=nM numeric_value=88
compound=CN(C)C[C@@H](OC(=O)N1Cc2c(NC(=O)c3ccc(F)cc3)n[nH]c2C1(C)C)c1ccccn1 parameter_measured=EC50 unit_abbreviation=nM numeric_value=153

----------
target or system: PAK4 Kinase domain (PAK4 KD) (Homo sapiens, UniProt O96013)
Construct: Cloning, expression, and purification of recombinant PAK4 Kinase domain (PAK4 KD); His tag (pET28a(+)/pET24a(+), Ni-NTA purification) (N, cleaved yes); GST (pGST4.5, glutathione column) (N, cleaved yes)
Sequence (O96013 321-572 limits assumed): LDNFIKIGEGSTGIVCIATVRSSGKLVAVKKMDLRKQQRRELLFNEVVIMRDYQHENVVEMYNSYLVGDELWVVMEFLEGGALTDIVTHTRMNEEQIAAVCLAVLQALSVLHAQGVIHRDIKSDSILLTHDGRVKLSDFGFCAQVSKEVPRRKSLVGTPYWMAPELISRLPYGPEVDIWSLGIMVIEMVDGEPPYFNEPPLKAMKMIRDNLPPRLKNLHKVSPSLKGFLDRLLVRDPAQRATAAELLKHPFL
assay protocol: PAK4 kinase domain enzymatic assay (PK/LDH-coupled, Ki)
condition details: PAK4 Kinase Domain
pKi: −log10 of the molar value.
parameter measured: pKi

compound_string=C[C@@H]([C@@H](OC(=O)N1Cc2c(NC(=O)c3ccc(F)cc3)n[nH]c2C1(C)C)c1ccccc1)N(C)C parameter_measured=pKi numeric_value=6.50
compound_string=COC[C@@H](CN(C)C)OC(=O)N1Cc2c(NC(=O)c3ccc(F)cc3)n[nH]c2C1(C)C parameter_measured=pKi numeric_value=6.46
compound_string=COc1cc(C(=O)Nc2n[nH]c3c2CN(C(=O)N[C@H](CN(C)C)c2ccccc2)C3(C)C)nc(OC)n1 parameter_measured=pKi numeric_value=6.39

FYI, the data here is from patent US7884117B2.
